The origin of these recorded values is the supplement of paper PMC12042874.

METHOD_DESCRIPTION: amyloid nucleation score (Sup35N fusion, yeast selection) (log enrichment); library NNK2; higher = more nucleation; inactive = no reads after selection;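 also: zero at mode of non-aggregating sequences after 7 days selection at 30°C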
ASSAY_ENDPOINT: amyloid nucleation score
Reply with just the number.

Qu. GET /values?readout=amyloid nucleation score&item= `AQWSRIDCNTLCKAVPISLA`
Ans. 5.77

Qu. Moving on to `TFNLKPRFLFV`
Ans. 5.18

Qu. What do you get for `IYYGGYVNRLNREAFRGCKL` ?
Ans. -1.49

Qu. Request: `ISLAINLCALIDATRDWSPC`
Ans. 6.12

Qu. Ok, now `SHTSCGMKVSLRICHSMGQR`
Ans. 6.43

Qu. And `IASTVDFKSLIISGDPSRQF` ?
Ans. -0.235

Qu. Entry `IFHPSLTSRIPINTRHKVT` please
Ans. 4.4

Qu. Okay, and `RNWPVIVVWAKTGCQCSFLM` ?
Ans. -0.544

Qu. Record: `VLAYMQHFYRCQLCSVYVWG`
Ans. 4.23

Qu. Do the same for `NDCSGKDVVILQQE` please
Ans. 0.192

Qu. Another sequence to check: `FYMPLLMYVVAVRPMSGNLV`
Ans. -0.22

Qu. One more sequence: `AMLDLRINTSRAGSHSRVVT`
Ans. 2.81

Qu. Same question, `EEMYRSIARNVVVLNRYCES` this time
Ans. -0.468

Qu. Next sequence up: `SLIDLLPCFFICRGRCFPSV`
Ans. -0.672

Qu. Now consider `CPRPTCAPHCWYFVLAMVAR` and answer again.
Ans. -0.4

Qu. Now try `SFGGARVSLLCCFPSTSIAS` .
Ans. 9.37
